# run-description: ATG_DR4_LXR_CIS: Attagene CIS-FACTORIAL HepG2 Assay for human Liver X Receptor (LXR), DR4 submotif (AID 2282929)
# condition-summary: HepG2 Attagene DR4 cis-reporter, mRNA transcription; actives raise or lower the signal
Calls of active or inactive are those of the source. Rule for the calls: active = hit-call score of the fitted dose curve at least 0.9, where 1 is the maximum; inactive = score below 0.9.
Outcome field: choose from 1 (yes) = active, 0 (no) = inactive

Query: Tell me the recorded outcome of this test for CC1=CCC(C(C)(C)O)CC1 (centres undefined) .
Result: 0 (no)

Query: Tell me the recorded outcome of this test for "OCCCO" .
Result: 0 (no)

Query: Tell me the recorded outcome of this test for "CCCCCCCCSCc1cc(C)c(O)c(CSCCCCCCCC)c1" .
Result: 0 (no)

Query: Tell me the recorded outcome of this test for "CCCCCCCCCO" .
Result: 0 (no)

Query: Tell me the recorded outcome of this test for "CC1=CCC(C(C)C)=CC1" .
Result: 0 (no)

Query: Tell me the recorded outcome of this test for "CCOc1ccc(NC(C)=O)cc1" .
Result: 0 (no)

Query: Tell me the recorded outcome of this test for "CC(C)=CC(=O)O" .
Result: 0 (no)

Query: Tell me the recorded outcome of this test for COC(=O)C(C)Oc1ccc(Oc2ncc(C(F)(F)F)cc2Cl)cc1 (centres undefined) .
Result: 0 (no)

Query: Tell me the recorded outcome of this test for "C=C(C)C(=O)OCCOCCOC(=O)C(=C)C" .
Result: 0 (no)

Query: Tell me the recorded outcome of this test for "[Cu+]" .
Result: 0 (no)

Query: Tell me the recorded outcome of this test for "CCCCCC(=O)O[C@]1(C(C)=O)CC[C@H]2[C@@H]3CCC4=CC(=O)CC[C@]4(C)[C@H]3CC[C@@]21C" .
Result: 0 (no)

Query: Tell me the recorded outcome of this test for CC(CCO)CC(C)(C)C (centres undefined) .
Result: 0 (no)

Query: Tell me the recorded outcome of this test for "CCCCCCCCCOS(=O)(=O)O" .
Result: 1 (yes)

Query: Tell me the recorded outcome of this test for "CCCCCCCCCCCCN1CCOCC1" .
Result: 1 (yes)

Query: Tell me the recorded outcome of this test for CCOCC(C)O (centres undefined) .
Result: 0 (no)

Query: Tell me the recorded outcome of this test for "CC(C)COC(=O)c1ccccc1O" .
Result: 0 (no)

Query: Tell me the recorded outcome of this test for "CC(=O)C1=C(C)[C@@H]2C[C@@]3(C1)[C@H](C)CC[C@H]3C2(C)C" .
Result: 1 (yes)

Query: Tell me the recorded outcome of this test for C=COCC1CCC(COC=C)CC1 (centres undefined) .
Result: 0 (no)

Query: Tell me the recorded outcome of this test for "CCCCCCCCCCCCOC(C)=O" .
Result: 0 (no)

Query: Tell me the recorded outcome of this test for "O=[N+]([O-])c1cc(N(CCO)CCO)ccc1NCCO" .
Result: 0 (no)

Query: Tell me the recorded outcome of this test for "NC(=O)NC(N)=O" .
Result: 0 (no)

Query: Tell me the recorded outcome of this test for "O=C(O)c1ccco1" .
Result: 0 (no)

Query: Tell me the recorded outcome of this test for CCCCC(CC)COCCO (centres undefined) .
Result: 0 (no)

Query: Tell me the recorded outcome of this test for "CCCCCC#CC(=O)OC" .
Result: 0 (no)

Query: Tell me the recorded outcome of this test for "COC(=O)c1cccc(C(=O)OC)c1" .
Result: 0 (no)

Query: Tell me the recorded outcome of this test for "C=CCCCCCCCCC(=O)OCC" .
Result: 0 (no)

Query: Tell me the recorded outcome of this test for C=CC(C)(CCC=C(C)C)OC(=O)CC (centres undefined) .
Result: 0 (no)

Query: Tell me the recorded outcome of this test for "CCCCCCOC(C)=O" .
Result: 0 (no)

Query: Tell me the recorded outcome of this test for CCCCOC(=O)C(C)OC(=O)CCC (centres undefined) .
Result: 0 (no)

Query: Tell me the recorded outcome of this test for C=C(C)CCCC(C)CCO (centres undefined) .
Result: 0 (no)

Query: Tell me the recorded outcome of this test for "CC(=O)Oc1c(C)c(C)c2c(c1C)CC[C@@](C)(CCC[C@H](C)CCC[C@H](C)CCCC(C)C)O2" .
Result: 0 (no)

Query: Tell me the recorded outcome of this test for "Cc1cc(N)n(-c2ccccc2)n1" .
Result: 0 (no)

Query: Tell me the recorded outcome of this test for CCCCC1CCCCC(=O)O1 (centres undefined) .
Result: 0 (no)

Query: Tell me the recorded outcome of this test for "CC(C)(O)CCc1ccccc1" .
Result: 0 (no)

Query: Tell me the recorded outcome of this test for "C=CC(=O)OCCCCCC" .
Result: 0 (no)

Query: Tell me the recorded outcome of this test for "C[N+](C)(C)CCO" .
Result: 0 (no)

Query: Tell me the recorded outcome of this test for "COc1ccc(C(C)=O)cc1" .
Result: 0 (no)

Query: Tell me the recorded outcome of this test for "Cc1cccc(C)c1" .
Result: 0 (no)

Query: Tell me the recorded outcome of this test for "NC(N)=S" .
Result: 0 (no)

----------
# run-description: ATG_Ets_CIS: Attagene CIS-FACTORIAL HepG2 Assay for human Erythroblast Transformation Specific (ETS) (AID 2282941)
# condition-summary: HepG2 ETS cis-reporter transcription, actives raise or lower the signal
Calls of active or inactive are those of the source. Rule for the calls: active = hit-call score of the fitted dose curve at least 0.9, where 1 is the maximum; inactive = score below 0.9.
Outcome field: choose from active, inactive

Query: Tell me the recorded outcome of this test for C=COCC1CCC(COC=C)CC1 (stereo unspecified) .
Result: inactive

Query: Tell me the recorded outcome of this test for "C=C(C)C(=O)OCCC[Si](OC)(OC)OC" .
Result: inactive

Query: Tell me the recorded outcome of this test for "CC=CC(=O)C1=C(C)C=CCC1(C)C" .
Result: inactive

Query: Tell me the recorded outcome of this test for "Cc1ccccc1S" .
Result: inactive

Query: Tell me the recorded outcome of this test for "C[C@]12CC[C@@H]3c4ccc(O)cc4CC[C@H]3[C@@H]1CC[C@@H]2O" .
Result: inactive

Query: Tell me the recorded outcome of this test for "NC(N)=NC(N)=NCCc1ccccc1" .
Result: inactive

Query: Tell me the recorded outcome of this test for "C=CCOC(=O)/C=C\C(=O)OCC=C" .
Result: active

Query: Tell me the recorded outcome of this test for "CNC(=C[N+](=O)[O-])NCCSCc1ccc(CN(C)C)o1" .
Result: inactive

Query: Tell me the recorded outcome of this test for CCCCC1CCCCC(=O)O1 (stereo unspecified) .
Result: inactive

Query: Tell me the recorded outcome of this test for "CC(=O)CCC=C(C)CCC=C(C)C" .
Result: inactive

Query: Tell me the recorded outcome of this test for "CCOC(=O)C(=O)OCC" .
Result: inactive

Query: Tell me the recorded outcome of this test for CC(C)(C)C1CCC(O)CC1 (stereo unspecified) .
Result: inactive

Query: Tell me the recorded outcome of this test for "CC(C)N(c1ccccc1)C(C)C" .
Result: inactive

Query: Tell me the recorded outcome of this test for "O=Cc1ccccc1O" .
Result: inactive

Query: Tell me the recorded outcome of this test for "CCOC(=O)COC(=O)c1ccccc1C(=O)OCC" .
Result: inactive

Query: Tell me the recorded outcome of this test for "COc1ccc(OC)cc1" .
Result: inactive

Query: Tell me the recorded outcome of this test for "CC(=O)c1ccc(O)cc1" .
Result: inactive

Query: Tell me the recorded outcome of this test for "CCCc1ccc(N)cc1" .
Result: inactive

Query: Tell me the recorded outcome of this test for "CC(C)(O)CCc1ccccc1" .
Result: inactive

Query: Tell me the recorded outcome of this test for "NC(=O)c1cnccn1" .
Result: inactive

Query: Tell me the recorded outcome of this test for "OCC=Cc1ccccc1" .
Result: inactive

----------
# system-under-test: Bile acid receptor (Homo sapiens)
# run-description: ATG_FXR_TRANS: Attagene TRANS-FACTORIAL HepG2 Assay for Farnesoid X Receptor (FXR) (AID 2282979);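 note: hits raise reporter mRNA above DMSO so AC50 marks FXR activation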
# condition-summary: HepG2 Attagene TRANS FXR-GAL4 reporter transcription
Inconclusive results are not listed. Active and inactive are the calls of the source. Rule for the calls: active = hit-call score of the fitted dose curve at least 0.9, where 1 is the maximum; inconclusive = response in the unintended direction; inactive = score below 0.9.
outcome-measure: outcome

Example results:
>>> df
                                   compound                  system_under_test       val
0                               COc1ccccc1O  Bile acid receptor (Homo sapiens)  inactive
1                      NC(=O)c1c(Cl)cccc1Cl  Bile acid receptor (Homo sapiens)  inactive
2                     CC(C)OB(OC(C)C)OC(C)C  Bile acid receptor (Homo sapiens)  inactive
3                        [Cl][Dy]([Cl])[Cl]  Bile acid receptor (Homo sapiens)  inactive
4  CC12CCC(C1)C(C)(C)C2O (stereo unspecified)  Bile acid receptor (Homo sapiens)  inactive

Shift focus to the following entry.
Query: Please look at this compound and report its outcome: "C=C1CC[C@H]2O[C@]2(C)CC[C@@H]2[C@@H]1CC2(C)C"
Result: inactive
